pIC50: −log10 of the molar value.
List of pIC50 tested on PDE4B (aa 152-484, Uniprot ID Q07343) (Homo sapiens (Human), UniProt Q07343).
Sequence (Q07343 324-656): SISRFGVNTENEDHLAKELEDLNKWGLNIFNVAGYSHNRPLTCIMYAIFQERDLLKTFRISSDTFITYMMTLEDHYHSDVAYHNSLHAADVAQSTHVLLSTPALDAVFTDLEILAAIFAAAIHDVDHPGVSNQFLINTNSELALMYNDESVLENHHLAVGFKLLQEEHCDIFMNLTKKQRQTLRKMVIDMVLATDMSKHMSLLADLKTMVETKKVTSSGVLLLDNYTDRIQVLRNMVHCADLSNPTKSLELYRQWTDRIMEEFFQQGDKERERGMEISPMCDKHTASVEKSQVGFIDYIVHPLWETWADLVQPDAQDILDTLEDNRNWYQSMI
measured_property: pIC50

> print(dat)
                                   compound  measured.property  numeric.result
1     CCOc1cc(-c2cncc(C3=CB(O)OC3)c2)ccc1OC              pIC50            8.58
2  CCOc1cc(-c2cncc(C3COB(O)C3)c2)c(F)cc1OC (single isomer, unassigned)              pIC50            8.82
3  CCCOc1c(OC)ccc(-c2cccc(C3=CB(O)OC3)c2)c1C#N              pIC50            8.08

(a) CCCOc1c(OC)ccc(-c2cccc(C3COB(O)C3)n2)c1F (centres unmarked)
(b) CCCOc1cccc(-c2cncc(C3COB(O)C3)c2)c1 (single isomer, unassigned) [Example 146]
*Q* Between these two entries, a and b , state which has the higher pIC50. Lab log: write the label of the selected item as the result.
*A* b
(b: 8.92, a: 8.20)

---

System: IL-13
assay_name: Cytokine assay: IL-13 release from PHA-L stimulated human PBMCs
Assay type: cell-based
measurement_conditions: Homo sapiens, PBMC, read-out: IL13 IC50
measured_property: IC50 (nM)

Answered cases to consult:
> print(dat)
                                   compound  target.or.test.system  numeric.result
1  CCOc1cc(-c2cncc([C@H]3COB(O)C3)c2)ccc1OC [Example 2]                  IL-13            1350
2  CCOc1c(OC)ccc(-c2cccc(C3COB(O)C3)n2)c1C#N (stereo not drawn) [Example 151]                  IL-13             813

(A) CCCOc1cc(-n2ccc(C3COB(O)C3)n2)ccc1OC (stereo not drawn) [Example 200]
(B) CCCOc1c(OC)ccc(-c2cccc(C3COB(O)C3)c2)c1F (stereo not drawn) [Example 116]
*Q* For the pair A and B , which member has the lower IC50 number? Reply briefly: the label of your chosen item.
*A* B

(1) COc1ccc(-c2cncc(C3COB(O)C3)c2)cc1OC1CCCC1 (stereo not drawn) [Example 149]
(2) COc1ccc(-c2nc(C3COB(O)C3)ns2)cc1OC1CC1 (single isomer, unassigned; enantiomer 2) [Example 181]
(3) CCCOc1cc(-c2cc(CO)cc(C3COB(O)C3)n2)ccc1OC (stereo not drawn) [Example 64]
*Q* # rank_down: sort by IC50, max first Thanks in advance for listing the labels in the requested order.
*A* 2, 1, 3

(I) CCOc1cc(-c2cncc(C3COB(O)C3)c2C)c(F)cc1OC (single isomer, unassigned) [Example 142]
(II) CCOc1cc(-c2cncc(C3COB(O)C3)n2)ccc1OC (stereo not drawn) [Example 56]
*Q* Param pair: I , II . Output: the one whose IC50 is numerically greater. Refer to your chosen item by its label in the answer.
*A* I
(I: 1040 nM, II: 446 nM)

(1) CCCOc1cc(-c2nc(CO)cc(C3COB(O)C3)n2)c(F)cc1OC (single isomer, unassigned; enantiomer 2) [Example 154]
(2) COc1ccc(-c2cncc(C3COB(O)C3)n2)cc1OC1CCCC1 (stereo not drawn) [Example 125]
*Q* Hi there, can you help? I need to know whether 1 or 2 has lower measured IC50. API: response body contains the label of the selected item.
*A* 2
(2: 577 nM, 1: 893 nM)

(P) COc1cnc(-c2cccc(C3COB(O)C3)c2)nc1OC (single isomer, unassigned) [Example 123]
(Q) CCOc1cc(-c2cncc(C3COB(O)C3)c2)ccc1SC (stereo not drawn) [Example 144]
*Q* Lab notebook, comparison: P versus Q , higher IC50 goes to which? Mark your selection by writing its label.
*A* P

(a) CCCOc1cc(-c2cccc(C3COB(O)C3)c2)ccc1OC (stereo not drawn) [Example 88]
(b) COc1ccc(-c2cccc(C3COB(O)C3)c2)cc1OCC1CC1 (stereo not drawn) [Example 165]
*Q* // max by IC50 over [ a , b ] Respond using the label that marks the chosen record.
*A* b

(P) COc1ccc(-c2cccc(C3COB(O)C3)c2)nc1OC (stereo not drawn) [Example 152]
(Q) CCOc1c(OC)ccc(-c2cncc(C3COB(O)C3)c2)c1C(F)(F)F (single isomer, unassigned) [Example 95]
*Q* Which of these two has the smaller recorded IC50: P or Q ? Kindly give the label for the entry you pick.
*A* Q
(Q: 461 nM, P: 828 nM)
